Provenance of the data: patent US20230257376A1

- Protocol Text: In vivo pharmacokinetic study in mice
- Cond: mouse, plasma, 1 mg/kg, Iv
Quantity: Cmax (ng/mL)
Answers are plain numbers, in ng/mL.

Illustrative cases are given below, each with its answer.
{"columns": ["Compound", "Cmax / ng/mL"],
 "data": [
  ["Cn1c(C(=O)N2CC(F)(F)C2)cc2c1CN(c1nc(F)cc(Nc3ccc(-c4cn[nH]c4)cc3)n1)CC2 [Compound L030]", 1120],
  ["Cn1c(C(=O)NCC(F)(F)F)cc2c1CN(c1nccc(Nc3ccc(-c4cn[nH]c4)cc3)n1)CC2 [Compound L017]", 2570]
]}

Would you mind listing Cmax for each of the following compounds?
1. Cn1c(C(=O)N2CC(F)(F)C2)cc2c1CN(c1ncc(F)c(Nc3ccc(-c4cn[nH]c4)cc3)n1)CC2 [Compound L027]
2. Cn1c(C(=O)N2CC(C(F)F)C2)cc2c1CN(c1nccc(Nc3ccc(-c4cn[nH]c4)cc3)n1)CC2 [Compound L060]
3. Cn1c(C(=O)N2CC(F)(F)C2)cc2c1CN(c1ncnc(Nc3ccc(-c4cn[nH]c4)cc3)n1)CC2 [Compound L036]
4. Cc1nc(Nc2ccc(-c3cn[nH]c3)cc2)nc(N2CCc3cc(C(=O)N4CC(F)(F)C4)n(C)c3C2)n1 [Compound L044]
5. Cn1c(C(=O)N2CC(F)(F)C2)cc2c1CN(c1nccc(Nc3ccc(-c4cn[nH]c4)cc3)n1)CC2 [Compound L005]

517
463
473
594
155
